# credit: the RNAGym collection of RNA variant scans (doi:10.1073/pnas.2313332121)

Overview of recorded polymerase ribozyme fitness (log ratio) for various variants
B1: TPR 5TU (parent)
chain: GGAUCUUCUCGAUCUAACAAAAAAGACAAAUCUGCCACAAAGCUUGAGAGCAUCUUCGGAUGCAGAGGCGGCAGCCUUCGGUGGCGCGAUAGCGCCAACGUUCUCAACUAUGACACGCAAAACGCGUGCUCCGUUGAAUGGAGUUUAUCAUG

Variants of: B1
Method: polymerase ribozyme fitness, log enrichment relative to wild type (log ratio); higher = more active; in vitro selection for triplet polymerase activity
Variants at the floor of the assay were thinned out.
The answer should be a number; do not append a unit.

U55G G59A G83A A98C C116G U127G
-4.04
A73U C85A A147C
-2.75
C75U G92U C105G A115U
-4.17
U53A C54U C85U G141U
-1.21

So for A17C C93U , the logged polymerase ribozyme fitness (log ratio) turned out to be -1.02

So for `U102A` , the logged polymerase ribozyme fitness (log ratio) turned out to be -0.854

So for A41C U102A , the logged polymerase ribozyme fitness (log ratio) turned out to be -1.07

So for G58U G126U A150C , the logged polymerase ribozyme fitness (log ratio) turned out to be -4.03

So for G126A G133C U146C , the logged polymerase ribozyme fitness (log ratio) turned out to be -2.5

So for `G83C` , the logged polymerase ribozyme fitness (log ratio) turned out to be -0.934

So for C54U G83A , the logged polymerase ribozyme fitness (log ratio) turned out to be -0.655

So for U7C U15G A41U A52G C96A , the logged polymerase ribozyme fitness (log ratio) turned out to be -3.52

So for G50U G74A C85U , the logged polymerase ribozyme fitness (log ratio) turned out to be -3.88

So for A12G C85G , the logged polymerase ribozyme fitness (log ratio) turned out to be -1.96

So for U102G A142U , the logged polymerase ribozyme fitness (log ratio) turned out to be -3.35

So for A19G A29G G92A C116G , the logged polymerase ribozyme fitness (log ratio) turned out to be -3.8

So for C38U A47G U53A G141C , the logged polymerase ribozyme fitness (log ratio) turned out to be -2.86

So for A17U A52U A142C , the logged polymerase ribozyme fitness (log ratio) turned out to be -3.3

So for C96U C123U G136U , the logged polymerase ribozyme fitness (log ratio) turned out to be -2.2

So for A39C C105U G124A , the logged polymerase ribozyme fitness (log ratio) turned out to be -2.08

So for A30C U55G C95A U135G U148A , the logged polymerase ribozyme fitness (log ratio) turned out to be -3.85

So for G48C U55A C93G , the logged polymerase ribozyme fitness (log ratio) turned out to be -3.87

So for `U134A` , the logged polymerase ribozyme fitness (log ratio) turned out to be -2.25

So for U53C C57G U61A G124A G128U , the logged polymerase ribozyme fitness (log ratio) turned out to be -4.14
